Data provenance is paper PMC9911399.

Measured binding signal by item
Biological target: T1, RBFOX1 RRM RbFoxmut (Fox-RRM*) (Homo sapiens, UniProt Q9NWB1 109-208, R118D;E147R;N151S;E152T)
T1 sequence: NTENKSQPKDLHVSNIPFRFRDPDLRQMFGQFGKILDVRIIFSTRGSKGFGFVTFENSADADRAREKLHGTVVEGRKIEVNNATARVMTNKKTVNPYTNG
Experiment: EMSA; HiTS-Eq, 1 nM pool, 10 min; buffer printed only for the single-RNA assays: 10 mM Tris pH 7.5, 150 mM NaCl, 3.4 mM EDTA, 0.001% NP-40, 30 C
Settings: tags: His6 N-terminal (pET28a); label: 5' 32P
The full ranking holds about 16,000 sequences; the median of “ka relative to ugcaugu” is about 0.096, and the highest 2% start at about 0.35. The sample as a whole holds a higher share of the highest values than the screen did.

- BINDER: "CUAAUAG (DNA:RNA) RNA: GGGAGACCGGAAUUCAGAUUGUCCCUAAUAGUUAAAUCCCGUCGUAGCCACCA DNA 1: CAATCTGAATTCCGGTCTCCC DNA 2: TGGTGGCTACGACGGGATT"
  binding signal: "0.0844 KA relative to UGCAUGU"
- BINDER: "AUAACAC (DNA:RNA) RNA: GGGAGACCGGAAUUCAGAUUGUCCAUAACACUUAAAUCCCGUCGUAGCCACCA DNA 1: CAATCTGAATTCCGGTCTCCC DNA 2: TGGTGGCTACGACGGGATT"
  binding signal: "0.0733 KA relative to UGCAUGU"
- BINDER: "ACACGAA (DNA:RNA) RNA: GGGAGACCGGAAUUCAGAUUGUCCACACGAAUUAAAUCCCGUCGUAGCCACCA DNA 1: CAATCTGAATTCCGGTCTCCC DNA 2: TGGTGGCTACGACGGGATT"
  binding signal: "0.0925 KA relative to UGCAUGU"
- BINDER: "GGUGGAC (DNA:RNA) RNA: GGGAGACCGGAAUUCAGAUUGUCCGGUGGACUUAAAUCCCGUCGUAGCCACCA DNA 1: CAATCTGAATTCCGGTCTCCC DNA 2: TGGTGGCTACGACGGGATT"
  binding signal: "0.0584 KA relative to UGCAUGU"
- BINDER: "UACUUUU (DNA:RNA) RNA: GGGAGACCGGAAUUCAGAUUGUCCUACUUUUUUAAAUCCCGUCGUAGCCACCA DNA 1: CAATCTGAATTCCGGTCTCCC DNA 2: TGGTGGCTACGACGGGATT"
  binding signal: "0.097 KA relative to UGCAUGU"
- BINDER: "GGGUCUA (DNA:RNA) RNA: GGGAGACCGGAAUUCAGAUUGUCCGGGUCUAUUAAAUCCCGUCGUAGCCACCA DNA 1: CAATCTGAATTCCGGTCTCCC DNA 2: TGGTGGCTACGACGGGATT"
  binding signal: "0.1 KA relative to UGCAUGU"
- BINDER: "UAUCAAU (DNA:RNA) RNA: GGGAGACCGGAAUUCAGAUUGUCCUAUCAAUUUAAAUCCCGUCGUAGCCACCA DNA 1: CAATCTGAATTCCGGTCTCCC DNA 2: TGGTGGCTACGACGGGATT"
  binding signal: "0.0491 KA relative to UGCAUGU"
- BINDER: "CUUGCGU (DNA:RNA) RNA: GGGAGACCGGAAUUCAGAUUGUCCCUUGCGUUUAAAUCCCGUCGUAGCCACCA DNA 1: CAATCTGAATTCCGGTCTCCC DNA 2: TGGTGGCTACGACGGGATT"
  binding signal: "0.154 KA relative to UGCAUGU"
- BINDER: "CACUACU (DNA:RNA) RNA: GGGAGACCGGAAUUCAGAUUGUCCCACUACUUUAAAUCCCGUCGUAGCCACCA DNA 1: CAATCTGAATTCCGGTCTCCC DNA 2: TGGTGGCTACGACGGGATT"
  binding signal: "0.0793 KA relative to UGCAUGU"
- BINDER: "GCGCGAC (DNA:RNA) RNA: GGGAGACCGGAAUUCAGAUUGUCCGCGCGACUUAAAUCCCGUCGUAGCCACCA DNA 1: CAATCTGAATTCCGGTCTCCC DNA 2: TGGTGGCTACGACGGGATT"
  binding signal: "0.0897 KA relative to UGCAUGU"
- BINDER: "CAUUAAC (DNA:RNA) RNA: GGGAGACCGGAAUUCAGAUUGUCCCAUUAACUUAAAUCCCGUCGUAGCCACCA DNA 1: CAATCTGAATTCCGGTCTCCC DNA 2: TGGTGGCTACGACGGGATT"
  binding signal: "0.113 KA relative to UGCAUGU"
- BINDER: "CCUAGCC (DNA:RNA) RNA: GGGAGACCGGAAUUCAGAUUGUCCCCUAGCCUUAAAUCCCGUCGUAGCCACCA DNA 1: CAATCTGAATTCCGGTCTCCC DNA 2: TGGTGGCTACGACGGGATT"
  binding signal: "0.149 KA relative to UGCAUGU"
- BINDER: "GGAGUCA (DNA:RNA) RNA: GGGAGACCGGAAUUCAGAUUGUCCGGAGUCAUUAAAUCCCGUCGUAGCCACCA DNA 1: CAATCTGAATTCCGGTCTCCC DNA 2: TGGTGGCTACGACGGGATT"
  binding signal: "0.0995 KA relative to UGCAUGU"
- BINDER: "UAUCCCC (DNA:RNA) RNA: GGGAGACCGGAAUUCAGAUUGUCCUAUCCCCUUAAAUCCCGUCGUAGCCACCA DNA 1: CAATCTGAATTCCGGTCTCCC DNA 2: TGGTGGCTACGACGGGATT"
  binding signal: "0.0611 KA relative to UGCAUGU"
- BINDER: "GAAGAAG (DNA:RNA) RNA: GGGAGACCGGAAUUCAGAUUGUCCGAAGAAGUUAAAUCCCGUCGUAGCCACCA DNA 1: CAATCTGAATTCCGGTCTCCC DNA 2: TGGTGGCTACGACGGGATT"
  binding signal: "0.0975 KA relative to UGCAUGU"
- BINDER: "CAACGCA (DNA:RNA) RNA: GGGAGACCGGAAUUCAGAUUGUCCCAACGCAUUAAAUCCCGUCGUAGCCACCA DNA 1: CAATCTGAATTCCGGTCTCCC DNA 2: TGGTGGCTACGACGGGATT"
  binding signal: "0.161 KA relative to UGCAUGU"
- BINDER: "UUCGCAG (DNA:RNA) RNA: GGGAGACCGGAAUUCAGAUUGUCCUUCGCAGUUAAAUCCCGUCGUAGCCACCA DNA 1: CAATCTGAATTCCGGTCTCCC DNA 2: TGGTGGCTACGACGGGATT"
  binding signal: "0.0914 KA relative to UGCAUGU"
